target: T1, human SLITRK6 on cells (human, UniProt Q9H5Y7 27-841); experiment: flow cytometry on CHP-212 cells, PE-conjugated anti-human Fc
T1 construct: whole, on cells
readout-name: EC50 (read off the curve)

Field: example entries. Status: answers known.
binder | EC50 (read off the curve)
Sirtratumab (antibody, V domains shown, Prior-art benchmark antibody; also called Sirtratuzumab) VH: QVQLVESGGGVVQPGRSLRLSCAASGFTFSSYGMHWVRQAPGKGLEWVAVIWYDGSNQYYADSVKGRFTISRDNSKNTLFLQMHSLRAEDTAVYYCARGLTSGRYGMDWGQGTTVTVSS VL: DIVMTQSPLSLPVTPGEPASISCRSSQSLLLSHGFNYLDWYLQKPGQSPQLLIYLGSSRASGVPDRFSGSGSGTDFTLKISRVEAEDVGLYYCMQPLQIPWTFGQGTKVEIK | ~0.1 nM
AGS15E (antibody, V domains shown, drug conjugate; drug-linker and positions not given, also called ADC of Sirtratumab) VH: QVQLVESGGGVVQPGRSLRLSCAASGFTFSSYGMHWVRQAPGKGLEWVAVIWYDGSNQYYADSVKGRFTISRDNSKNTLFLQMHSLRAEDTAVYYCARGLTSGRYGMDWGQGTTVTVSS VL: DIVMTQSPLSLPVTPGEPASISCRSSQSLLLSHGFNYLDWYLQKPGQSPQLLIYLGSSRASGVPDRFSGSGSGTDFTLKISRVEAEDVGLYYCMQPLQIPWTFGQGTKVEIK | ~0.2 nM

Alright, here's another binder for you.
Look up EC50 (read off the curve) for this binder: hu1H2-03 with a LALA mutation (hu1H2-03-LALA) (antibody, V domains shown) VH: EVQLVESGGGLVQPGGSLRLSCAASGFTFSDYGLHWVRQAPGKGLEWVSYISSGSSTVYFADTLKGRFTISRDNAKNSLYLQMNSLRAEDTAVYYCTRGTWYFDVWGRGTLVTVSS VL: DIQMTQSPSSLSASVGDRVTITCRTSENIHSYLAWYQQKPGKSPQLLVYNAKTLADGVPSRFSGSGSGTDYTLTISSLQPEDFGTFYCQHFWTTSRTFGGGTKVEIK
~0.2 nM
